The origin of these recorded values is patent US9624228B2.

System: A375 cells
Experiment: Tumor cell line proliferation assay (CellTiter Glo), A375
Assay type: cell-based
Settings: Homo sapiens, A-375, 96 hours, read-out: A375 (V599E) Cell Proliferation IC50
Measured quantity: IC50

Cc1cc(-c2n[nH]c3cc4[nH]c(=O)c(C(C)c5cccc(Cl)c5)cc4cc23)ccn1 (stereo not shown) ... < 250 nM

----------
Listing of recorded IC50 by entry.
Target: ERK2 enzyme (Homo sapiens (Human), UniProt P28482)
Sequence (P28482 whole entry): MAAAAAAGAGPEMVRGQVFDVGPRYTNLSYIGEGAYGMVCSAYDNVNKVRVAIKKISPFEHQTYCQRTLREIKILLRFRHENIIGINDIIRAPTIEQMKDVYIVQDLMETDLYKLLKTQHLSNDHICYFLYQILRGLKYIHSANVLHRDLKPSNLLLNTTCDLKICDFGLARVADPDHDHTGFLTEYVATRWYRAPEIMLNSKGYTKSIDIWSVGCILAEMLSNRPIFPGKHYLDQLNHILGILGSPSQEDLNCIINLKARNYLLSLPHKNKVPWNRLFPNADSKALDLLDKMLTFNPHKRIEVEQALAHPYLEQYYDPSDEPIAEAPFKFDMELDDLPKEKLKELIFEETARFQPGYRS
Assay: Inhibition assay of ERK (Z'-LYTE kinase assay, Ser/Thr 3 peptide substrate)
Format: biochemical
Settings: In vitro, ERK2 enzyme 0.47 ng/μL, 100 μM ATP
Measured quantity: IC50

Cc1cc(-c2n[nH]c3cc4c(cc23)CN(C2CN(CC3CCCC3)CC(F)(F)C2)C(=O)N4)ccn1 (stereo not shown) [Compound 201] ... 250 to 1000 nM
COc1ccc(-c2n[nH]c3cc4c(cc23)CN([C@@H]2CCN(CC(F)(F)F)C2)C(=O)N4)cn1 [Compound 277] ... < 50 nM
Nc1ncc(-c2n[nH]c3cc4c(cc23)CN([C@@H]2CN(CC(F)(F)F)C[C@H]2c2ccccc2)C(=O)N4)cn1 [Compound 351] ... < 50 nM
Cc1cc(-c2n[nH]c3cc4c(cc23)CN([C@H]2CN(CC(F)(F)F)C[C@@H]2c2ccccc2)C(=O)N4)ccn1 [Compound 303] ... 250 to 1000 nM
Cc1cc(-c2n[nH]c3cc4c(cc23)CN([C@@H]2CN(CC(F)(F)F)C[C@H]2c2ccccc2)C(=O)N4)cc(C)n1 [Compound 339] ... < 50 nM
COc1ncc(-c2n[nH]c3cc4c(cc23)CN([C@@H]2CN(C)C[C@H]2c2ccccc2)C(=O)N4)cn1 (mixture of isomers) [Compound 355] ... < 50 nM
Cc1cc(-c2n[nH]c3cc4c(cc23)CN(Cc2ccccc2)C(=O)N4)ccn1 [Compound 372] ... < 50 nM
